# System: A549
# assayRemarks: Antiproliferative activity against human A549 cells
# Type: functional, cell-based
observedProperty: pIC50
Numbers only, as −log10 of the molar value.

Reference set (2 entries):
# smilesInput, observedProperty, readoutNumber
rows = [
    ("Cn1cc(-c2cnc3ccc(NC(=O)Nc4ccccc4)nc3c2)cn1", "pIC50", 5.51),
    ("Cn1cc(-c2cnc3ccc(NC(=O)NC(C)(C)C)nc3c2)cn1", "pIC50", 6.00),
]

API: the following record is the query input.
Record COc1cc(-c2cnc3ccc(NC(=O)NC(C)(C)C)nc3c2)ccc1O , field pIC50: 4.85

* * *

# assayRemarks: Chromatographic hydrophobicity index, CHI of the compound by RP-HPLC method
# Format: physicochemical
Rule: CHI below 80 gives Satisfied, anything at or above gives Not satisfied.

Below, 5 compounds whose answers are already recorded.
# smilesInput, classLabel
rows = [
    ("Cn1cc(-c2cnc3ccc(NC(=O)NCCc4ccccc4)nc3c2)cn1", "Satisfied"),
    ("Cn1cc(-c2cnc3ccc(NC(=O)Nc4ccccc4)nc3c2)cn1", "Satisfied"),
    ("Cn1cc(-c2cnc3ccc(NC(=O)NC(C)(C)C)nc3c2)cn1", "Satisfied"),
    ("Cn1cc(-c2cnc3ccc(NC(=O)NCc4ccccc4)nc3c2)cn1", "Satisfied"),
    ("COc1ccc(-c2cnc3ccc(NC(=O)NC(C)(C)C)nc3c2)cc1OC", "Not satisfied"),
]

Here is the next item to consider.
query: Consider CCNC(=O)Nc1ccc2ncc(-c3ccc(OC)c(OC)c3)cc2n1 . Does its CHI lie strictly below 80?
result: Satisfied
